These measurements were taken from paper PMC8070648.

- ASSAY_OVERVIEW: Biodistribution in AR42J tumor-bearing nude mice
- Format: in vivo
- EXPERIMENTAL_SETUP: female, CD-1 nude, mouse, pancreas, iv, 1 nmol/mouse, total radioactivity, 24 h p.i., i.v. 5 MBq, read-out: Pancreas
ENDPOINT_NAME: tissue uptake at 24 h
Give your result as the value with the unit written after it.

input: Which tissue uptake at 24 h is reported for this compound? C[C@@H](O)[C@@H]1NC(=O)[C@H](CCCCN)NC(=O)[C@@H](Cc2c[nH]c3ccccc23)NC(=O)[C@H](Cc2ccc(O)cc2)NC(=O)[C@@H](NC(=O)[C@@H](Cc2ccccc2)NC(=O)CN2CCN(CC(=O)O)CCN(CC(=O)O)CCN(CC(=O)O)CC2)CSSC[C@@H](C(=O)N[C@H](CO)[C@@H](C)O)NC1=O [[^161Tb]Tb-DOTATOC, metal not drawn]
output: 0.18 %ID/g

====

- ASSAY_OVERVIEW: Biodistribution in AR42J tumor-bearing nude mice
- Type: in vivo
- EXPERIMENTAL_SETUP: female, CD-1 nude, mouse, AR42J tumor, iv, 1 nmol/mouse, total radioactivity, 2 h p.i., i.v. 5 MBq, read-out: AR42J Tumor
ENDPOINT_NAME: tissue uptake at 2 h (%ID/g)
Kindly answer with a numeric value in %ID/g, unit omitted.

input: Which tissue uptake at 2 h is reported for this compound? C[C@@H](O)[C@@H]1NC(=O)[C@H](CCCCN)NC(=O)[C@@H](Cc2c[nH]c3ccccc23)NC(=O)[C@H](Cc2ccc(O)cc2)NC(=O)[C@@H](NC(=O)[C@@H](Cc2ccccc2)NC(=O)CN2CCN(CC(=O)O)CCN(CC(=O)O)CCN(CC(=O)O)CC2)CSSC[C@@H](C(=O)N[C@H](CO)[C@@H](C)O)NC1=O [[^161Tb]Tb-DOTATOC, metal not drawn]
output: 8.2

====

- ASSAY_OVERVIEW: Biodistribution in AR42J tumor-bearing nude mice
- Type: in vivo
- EXPERIMENTAL_SETUP: female, CD-1 nude, mouse, stomach, iv, 1 nmol/mouse, total radioactivity, 24 h p.i., i.v. 5 MBq, read-out: Stomach
ENDPOINT_NAME: tissue uptake at 24 h (%ID/g)
Kindly answer with a numeric value in %ID/g, unit omitted.

input: Which tissue uptake at 24 h is reported for this compound? C[C@@H](O)[C@@H]1NC(=O)[C@H](CCCCN)NC(=O)[C@@H](Cc2c[nH]c3ccccc23)NC(=O)[C@H](Cc2ccc(O)cc2)NC(=O)[C@@H](NC(=O)[C@@H](Cc2ccccc2)NC(=O)CN2CCN(CC(=O)O)CCN(CC(=O)O)CCN(CC(=O)O)CC2)CSSC[C@@H](C(=O)N[C@H](CO)[C@@H](C)O)NC1=O [[^161Tb]Tb-DOTATOC, metal not drawn]
output: 0.29

====

- ASSAY_OVERVIEW: Biodistribution in AR42J tumor-bearing nude mice
- Assay type: in vivo
- EXPERIMENTAL_SETUP: female, CD-1 nude, mouse, blood, iv, 1 nmol/mouse, total radioactivity, 2 h p.i., i.v. 5 MBq, read-out: Blood
ENDPOINT_NAME: tissue uptake at 2 h

input: Which tissue uptake at 2 h is reported for this compound? C[C@@H](O)[C@@H]1NC(=O)[C@H](CCCCN)NC(=O)[C@@H](Cc2c[nH]c3ccccc23)NC(=O)[C@H](Cc2ccc(O)cc2)NC(=O)[C@@H](NC(=O)[C@@H](Cc2ccccc2)NC(=O)CN2CCN(CC(=O)O)CCN(CC(=O)O)CCN(CC(=O)O)CC2)CSSC[C@@H](C(=O)N[C@H](CO)[C@@H](C)O)NC1=O [[^161Tb]Tb-DOTATOC, metal not drawn]
output: ≤ 0.1 %ID/g
